Examples of compounds with documented Post-emerge Herbicidal Activity ABUTH follow.
- System: velvetleaf (Abutilon theophrasti, ABUTH)
- TEST SUMMARY: Post-emerge test, greenhouse herbicide activity screening
- Format: in vivo
- EXPERIMENTAL SETUP: 250 g ai/ha; phytotoxicity rating 0-100 (0 no damage, 100 complete death), 14 days after application
- Method: A standard greenhouse herbicide activity screening system was used to evaluate the herbicidal efficacy and crop safety of these test compounds. […] At 14 days after application of the test materials, phytotoxicity ratings were recorded. […]
Lab note: write the figure by itself, no unit.

Worked cases, answers included:
* COc1c(Cl)cc(F)c(-n2c(=O)c(N)c(C(F)(F)F)n(C)c2=O)c1N | 90
* COc1c(Cl)cc(F)c(-n2c(=O)cc(C(F)(F)F)n(C)c2=O)c1NC(=O)C=C(C)C | 95
* COc1c(Cl)cc(F)c(-n2c(=O)cc(C(F)(F)F)n(C)c2=O)c1N(C)C | 100

Request: # Post-emerge Herbicidal Activity ABUTH lookup, item CC(C)Oc1c(Cl)cc(F)c(-n2c(=O)cc(C(F)(F)F)n(C)c2=O)c1N
Result: 100

Request: # Post-emerge Herbicidal Activity ABUTH lookup, item CCOC(=O)CC(=O)Nc1c(OC(=O)CC(=O)OCC)c(Cl)cc(F)c1-n1c(=O)cc(C(F)(F)F)n(C)c1=O
Result: 100

Request: # Post-emerge Herbicidal Activity ABUTH lookup, item COc1c(Cl)cc(F)c(-n2c(=O)c(NC(=O)C(F)(F)F)c(C(F)(F)F)n(C)c2=O)c1NC(=O)C(F)(F)F
Result: 65

Request: # Post-emerge Herbicidal Activity ABUTH lookup, item Cn1c(C(F)(F)F)cc(=O)n(-c2c(F)cc(Cl)c(OCc3ccccc3)c2N)c1=O
Result: 100

Request: # Post-emerge Herbicidal Activity ABUTH lookup, item Cn1c(C(F)(F)F)cc(=O)n(-c2c(N)cc(OC(F)F)cc2F)c1=O
Result: 80

Request: # Post-emerge Herbicidal Activity ABUTH lookup, item C=Cc1ccc(C(=O)Nc2c(OC)c(Cl)cc(F)c2-n2c(=O)cc(C(F)(F)F)n(C)c2=O)cc1
Result: 100

Request: # Post-emerge Herbicidal Activity ABUTH lookup, item COc1c(Cl)cc(F)c(-n2c(=O)cc(C(F)(F)F)n(C)c2=O)c1NC(=O)CC#N
Result: 95

----------
- Tested on: barnyardgrass (Echinochloa crus-galli, ECHCG)
- TEST SUMMARY: Post-emerge test, greenhouse herbicide activity screening
- Type: in vivo
- EXPERIMENTAL SETUP: 250 g ai/ha; post-emerge; 14 days after application; rating scale 0-100
Examples of compounds with documented Post-emerge Herbicidal Activity ECHCG (phytotoxicity rating) follow.

• COc1c(Cl)cc(F)c(-n2c(=O)cc(C(F)(F)F)n(C)c2=O)c1NNC(=O)c1ccc(F)cc1F = 90
• CCOc1c(Cl)cc(F)c(-n2c(=O)cc(C(F)(F)F)n(C)c2=O)c1Cl = 0

Request: # Post-emerge Herbicidal Activity ECHCG (phytotoxicity rating) lookup, item COc1c(Cl)cc(F)c(-n2c(=O)cc(C(F)(F)F)n(C)c2=O)c1Sc1ccc2ccccc2c1
Result: 0

Request: # Post-emerge Herbicidal Activity ECHCG (phytotoxicity rating) lookup, item COc1c(Cl)cc(F)c(-n2c(=O)cc(C(F)(F)F)n(C)c2=O)c1NN=CC(C)c1ccccc1 (centres unmarked)
Result: 99

Request: # Post-emerge Herbicidal Activity ECHCG (phytotoxicity rating) lookup, item COc1c(Cl)cc(F)c(-n2c(=O)cc(C(F)(F)F)n(C)c2=O)c1NN=Cc1ccc(F)cc1F
Result: 100

----------
- Tested on: barnyardgrass (Echinochloa crus-galli, ECHCG)
- TEST SUMMARY: Pre-emerge test, greenhouse herbicide activity screening
- Assay type: in vivo
- EXPERIMENTAL SETUP: pre-emerge, 250 g ai/ha, 14 days after application, scale 0-100
OBSERVATION TYPE: phytotoxicity rating ECHCG
Lab note: write the figure by itself, no unit.

Request: Can you look up phytotoxicity rating ECHCG on barnyardgrass (Echinochloa crus-galli, ECHCG) for COc1c(Br)cc(F)c(-n2c(=O)cc(C(F)(F)F)n(C)c2=O)c1N(C(=O)C=Cc1ccccc1)C(=O)C=Cc1ccccc1 ?
Result: 0

Request: Can you look up phytotoxicity rating ECHCG on barnyardgrass (Echinochloa crus-galli, ECHCG) for COc1c(Cl)cc(F)c(-n2c(=O)cc(C(F)(F)F)n(C)c2=O)c1NC(=O)COc1ccc(F)cc1 ?
Result: 95

Request: Can you look up phytotoxicity rating ECHCG on barnyardgrass (Echinochloa crus-galli, ECHCG) for COc1c(Cl)cc(F)c(-n2c(=O)cc(C(F)(F)F)n(C)c2=O)c1NC(=O)C=Cc1ccccc1[N+](=O)[O-] ?
Result: 40

Request: Can you look up phytotoxicity rating ECHCG on barnyardgrass (Echinochloa crus-galli, ECHCG) for C=Cc1ccc(C(=O)N(C(=O)c2ccc(C=C)cc2)c2c(OC)c(Br)cc(F)c2-n2c(=O)cc(C(F)(F)F)n(C)c2=O)cc1 ?
Result: 0

----------
Examples of compounds with documented phytotoxicity rating CORN (crop damage) follow.
- Tested on: field corn (Zea mays L., var. Dekalb 535, CORN)
- TEST SUMMARY: Pre-emerge test, crop safety
- Type: in vivo
- EXPERIMENTAL SETUP: pre-emerge, 63 g ai/ha, 14 days after application, scale 0-100
Lab note: write the figure by itself, no unit.

Worked cases, answers included:
* COc1c(Cl)cc(F)c(-n2c(=O)cc(C(F)(F)F)n(C)c2=O)c1NC(=O)c1c(C)cccc1C | 0
* COc1c(Cl)cc(F)c(-n2c(=O)cc(C(F)(F)F)n(C)c2=O)c1NC(=O)COc1ccc(Cl)cc1Cl | 10
* Cn1c(C(F)(F)F)cc(=O)n(-c2ccc(C(F)(F)F)cc2NC(=O)c2ccc3ccccc3c2)c1=O | 0
* COc1c(Cl)cc(F)c(-n2c(=O)cc(C(F)(F)F)n(C)c2=O)c1NC(=O)C=Cc1ccccc1[N+](=O)[O-] | 0

Please examine the following record next.
Request: Can you look up phytotoxicity rating CORN (crop damage) on field corn (Zea mays L., var. Dekalb 535, CORN) for Cn1c(C(F)(F)F)cc(=O)n(-c2c(F)cc(Cl)cc2NC2CC2)c1=O ?
Result: 100

----------
- Tested on: upland rice (Oryza sp., var. Tebonnet, RICE)
- TEST SUMMARY: Post-emerge test, crop safety
- Assay type: in vivo
- EXPERIMENTAL SETUP: post-emerge, 250 g ai/ha, 14 days after application, rating scale 0-100
OBSERVATION TYPE: RICE phytotoxicity rating (crop damage)

Worked cases, answers included:
- COc1c(Cl)cc(F)c(-n2c(=O)cc(C(F)(F)F)n(C)c2=O)c1NC(=O)C=Cc1cccc(Cl)c1: 80
- COc1c(Cl)cc(F)c(-n2c(=O)cc(C(F)(F)F)n(C)c2=O)c1NC(=O)C(C#N)=Cc1ccccc1: 10
- COc1c(C#N)cc(F)c(-n2c(=O)cc(C(F)(F)F)n(C)c2=O)c1NC(=O)c1ccc2ccccc2c1 [2-180]: 65
- COc1c(Cl)cc(F)c(-n2c(=O)cc(C(F)(F)F)n(C)c2=O)c1NC(=O)CSC: 30
- C=Cc1ccc(C(=O)N(C(=O)c2ccc(C=C)cc2)c2c(OC)c(Br)cc(F)c2-n2c(=O)cc(C(F)(F)F)n(C)c2=O)cc1: 0

Request: # RICE phytotoxicity rating (crop damage) lookup, item COc1c(Cl)cc(F)c(-n2c(=O)cc(C(F)(F)F)n(C)c2=O)c1NC(=O)Cc1ccccc1
Result: 10

Request: # RICE phytotoxicity rating (crop damage) lookup, item COc1c(Cl)cc(F)c(-n2c(=O)cc(C(F)(F)F)n(N)c2=O)c1NC(=O)c1ccc2ccccc2c1
Result: 65

----------
Examples of compounds with documented Pre-emerge Herbicidal Activity RICE follow.
- System: upland rice (Oryza sp., var. Tebonnet, RICE)
- TEST SUMMARY: Pre-emerge test, crop safety
- Type: in vivo
- EXPERIMENTAL SETUP: 250 g ai/ha; crop damage rating 0-100, 14 days after application
Lab note: write the figure by itself, no unit.

- Cn1c(C(F)(F)F)cc(=O)n(-c2c(F)cc(Cl)c(Oc3ncccc3[N+](=O)[O-])c2NC(=O)c2ccc3ccccc3c2)c1=O [2-199]: 100
- COc1c(Cl)cc(F)c(-n2c(=O)cc(C(F)(F)F)n(C)c2=O)c1NC(=O)N(Cc1ccccc1)c1ccccc1 [Compound 3-23]: 0
- COc1c(Cl)ccc(-n2c(=O)cc(C(F)(F)F)n(C)c2=O)c1NC(=O)c1ccc2ccccc2c1 [2-202]: 90
- COc1c(Cl)cc(F)c(-n2c(=O)cc(C(F)(F)F)n(C)c2=O)c1NC(=O)Oc1ccccc1C(C)(C)C [4-27]: 50
- COc1c(Cl)cc(F)c(-n2c(=O)cc(C(F)(F)F)n(C)c2=O)c1NC(=O)OCc1ccc(F)cc1 [4-7]: 100

Request: # Pre-emerge Herbicidal Activity RICE lookup, item COc1c(Cl)cc(F)c(-n2c(=O)cc(C(F)(F)F)n(C)c2=O)c1NC(=O)OCc1ccc(Cl)c(Cl)c1 [4-32]
Result: 30

Request: # Pre-emerge Herbicidal Activity RICE lookup, item COc1c(Cl)cc(F)c(-n2c(=O)cc(C(F)(F)F)n(C)c2=O)c1NC(=O)OCc1c(F)cccc1F [4-29]
Result: 85

Request: # Pre-emerge Herbicidal Activity RICE lookup, item COc1c(Cl)cc(F)c(-n2c(=O)cc(C(F)(F)F)n(C)c2=O)c1NC(=O)OC(C)c1ccccc1 (stereo not drawn) [4-47]
Result: 70

Request: # Pre-emerge Herbicidal Activity RICE lookup, item CC(C)Oc1c(Cl)cc(F)c(-n2c(=O)cc(C(F)(F)F)n(C)c2=O)c1NC(=O)c1ccc2ccccc2c1 [2-197]
Result: 80

Request: # Pre-emerge Herbicidal Activity RICE lookup, item Cn1c(C(F)(F)F)cc(=O)n(-c2c(F)cc(Cl)c(OCC#N)c2NC(=O)OCc2ccccc2)c1=O [4-23]
Result: 90

Request: # Pre-emerge Herbicidal Activity RICE lookup, item Cn1c(C(F)(F)F)cc(=O)n(-c2c(F)cc(Cl)c(O)c2NC(=O)c2ccc3ccccc3c2)c1=O [Compound 2-194]
Result: 10

Each recorded value in this set is attributed to patent US6355799B1.
